Assay: Apparent permeability of compound across apical to basal membrane in human Caco-2 by ABBA assay
Assay type: ADME, cell-based
Param threshold (10 ×10⁻⁶ cm/s) applies to Papp A→B; output true (1) when value >= threshold, false (0) when value < threshold.

Cc1cc2ncccc2cc1Nc1ncc2c(n1)n([C@@H]1CNC[C@H]1F)c(=O)n2C; false (0)
Cc1cc2ncccc2cc1Nc1ncc2c(n1)n(C1CCNCC1)c(=O)n2C; false (0)
Cc1cc2ncccc2cc1Nc1ncc2c(n1)n([C@H]1CCN(CCO)C1)c(=O)n2C; false (0)
Cc1cc2ncccc2cc1Nc1ncc2c(n1)n(C1CCN(C)CC1)c(=O)n2C; true (1)

Lookup: Entry `Cc1cc2ncccc2cc1Nc1ncc2c(n1)n([C@H]1CCN(C)C1)c(=O)n2C` : is its Papp A→B no less than 10 ×10⁻⁶ cm/s?
Found: true (1)

----------
Test: Acid dissociation constant, pKa of the compound
Assay type: physicochemical
Param threshold (8) applies to pKa; output criterion met when value >= threshold, criterion not met when value < threshold.

Cc1cc2ncccc2cc1Nc1ncc2c(n1)n([C@@H]1CN(C)C[C@H]1F)c(=O)n2C; criterion not met
Cc1cc2ncccc2cc1Nc1ncc2c(n1)n([C@@H]1CCN(C)C1)c(=O)n2C; criterion met
Cc1cc2ncccc2cc1Nc1ncc2c(n1)n([C@@H]1CNC[C@@H]1F)c(=O)n2C; criterion not met
Cc1cc2ncccc2cc1Nc1ncc2c(n1)n([C@H]1CCN(C)C1)c(=O)n2C; criterion met

Lookup: Entry `Cc1cc2ncccc2cc1Nc1ncc2c(n1)n([C@@H]1CNC[C@H]1F)c(=O)n2C` : is its pKa no less than 8?
Found: criterion not met

----------
Assay: 1-Octanol/aqueous buffer partition coefficient, logD of the compound at pH 7.4 by shake flask technique based UPLC analysis
Type: physicochemical
measured parameter: logD
Answers are plain numbers.

Consider the following illustrative entries.
Cc1cc2ncnn2cc1Nc1ncc2c(n1)n(C1CCN(C)CC1)c(=O)n2C; 0.3
Cc1cc2nnccc2cc1Nc1ncc2c(n1)n(C1CCN(C)CC1)c(=O)n2C; 1.2
Cc1cc2ncccc2cc1Nc1ncc2c(n1)n(C1CCOCC1)c(=O)n2C; 2.5
Cc1cc2ncnn2cc1Nc1ncc2c(n1)n(C1CCOCC1)c(=O)n2C [AZD-7648]; 1.3
Cc1cc2ncccc2cc1Nc1ncc2c(n1)n([C@H]1CCN(C)C1)c(=O)n2C; 1.1

Below are some compounds; for each one, tell me its logD.
1. Cc1cc2ncncc2cc1Nc1ncc2c(n1)n(C1CCOCC1)c(=O)n2C
2. Cc1cc2ncccc2cc1Nc1ncc2c(n1)n([C@@H]1CN(C)C[C@@H]1F)c(=O)n2C
3. Cc1cc2ncccc2cc1Nc1ncc2c(n1)n([C@H]1CCN(CCO)C1)c(=O)n2C
4. Cc1cc2nnccc2cc1Nc1ncc2c(n1)n(C1CCOCC1)c(=O)n2C
5. Cc1cc2ncccc2cc1Nc1ncc2c(n1)n(C1CCN(C)CC1)c(=O)n2C

Found:
2.2
2.2
0.9
2.2
1.8

----------
Assay: 1-Octanol/aqueous buffer partition coefficient, logD of the compound at pH 7.4 by shake flask technique based UPLC analysis
Type: physicochemical
Can you tell me logD for the items I'm about to list?
Answers are plain numbers.

Cc1cc2ncccc2cc1Nc1ncc2c(n1)n([C@@H]1CCN(C)C1)c(=O)n2C; 1.2
COCCN1CC[C@H](n2c(=O)n(C)c3cnc(Nc4cc5cccnc5cc4C)nc32)C1; 1.7
Cc1cc2ncccc2cc1Nc1ncc2c(n1)n([C@@H]1CN(C)C[C@H]1F)c(=O)n2C; 2.1
Cc1cc2ncccc2cc1Nc1ncc2c(n1)n(C1CCNCC1)c(=O)n2C; 0.5

Below are some molecules; for each one, tell me its logD.
1. Cc1cc2nccnc2cc1Nc1ncc2c(n1)n(C1CCOCC1)c(=O)n2C
2. Cc1cc2ncccc2cc1Nc1ncc2c(n1)n([C@H]1CCN(C3COC3)C1)c(=O)n2C
3. Cc1cc2ncccc2cc1Nc1ncc2c(n1)n([C@@H]1CNC[C@@H]1F)c(=O)n2C

Found:
1. 2.2
2. 1.5
3. 1.7

Below are some molecules; for each one, tell me its logD.
1. Cc1cc2nccnc2cc1Nc1ncc2c(n1)n(C1CCN(C)CC1)c(=O)n2C
2. Cc1cc2ncccc2cc1Nc1ncc2c(n1)n([C@@H]1CNC[C@H]1F)c(=O)n2C

Found:
[1.2, 1.6]
